Quick list: cell viability per entry.
System: Vero E6
Experiment: cell viability relative to DMSO; higher = less toxic
Conditions: 72 h; 1 nM
REPORTED ENDPOINT: cell viability (%)

* O=c1[nH]c(CCl)nc2sc3c(c12)CCCC3 | 99.4
* OCC[N+]12CN3CN(CN(C3)C1)C2 | 102
* C[C@H](Cc1cc2c(c(C(N)=O)c1)N(CCCO)CC2)NCCOc1ccccc1OCC(F)(F)F | 93.9
* NS(=O)(=O)C#Cc1ccccc1 | 100
* CCCCC/C=C\C=C\CCCCCCCCC(=O)O [trans-10,cis-12-conjugated-linoleic-acid] | 109
* O=C(COc1ccc(Cl)cc1)N1CCN(Cc2ccc3c(c2)OCO3)CC1 [fipexide] | 97.6
* O=C(NCCCN1CCC2(CC1)OCc1ccccc12)[C@H]1CCCN1Cc1ccccc1 | 94.8
* O=C1C(O)=C(O)C(=O)C(O)=C1O | 98.3
* C[C@H]1CC[C@H](n2c3cnccc3c3cnc(Nc4ccc5c(n4)CCN(C(=O)CO)C5)nc32)CC1 | 99.6
